These entries and their values trace back to patent US20220194960A1.

This section presents compounds with their documented Tmax values.
# measurement protocol: Animal pharmacokinetic studies in rats
# Format: in vivo
# measurement setup: rat, po; male rats, 5 mg/kg single intragastric administration, plasma; read-out: Tmax

# molecule, Tmax (h)
rows = [
    ("CN1CCN(c2ccc(Nc3ncc4c(F)c(C5CC5)n(-c5cccc(C(C)(C)O)n5)c4n3)cc2)CC1", 2.3),
    ("CN1CCN(C2CCN(c3ccc(Nc4ncc5cc(C6CC6)n(-c6cccc(C(C)(C)O)n6)c5n4)cc3F)CC2)CC1", 5.33),
    ("CN1CCN(C2CCN(c3ccc(Nc4ncc5cc(C6CC6)n(-c6cccc(C(C)(C)O)n6)c5n4)cc3)CC2)CC1", 4),
    ("Cc1cc2cnc(Nc3ccc(N4CCC(N5CCN(C)CC5)CC4)cc3)nc2n1-c1cccc(C(C)(C)O)n1", 5.4),
]
